- Assay target: T1, extracellular domain of cyno ILT3 (cynoILT3-ECD) (cynomolgus monkey)
- T1 chain: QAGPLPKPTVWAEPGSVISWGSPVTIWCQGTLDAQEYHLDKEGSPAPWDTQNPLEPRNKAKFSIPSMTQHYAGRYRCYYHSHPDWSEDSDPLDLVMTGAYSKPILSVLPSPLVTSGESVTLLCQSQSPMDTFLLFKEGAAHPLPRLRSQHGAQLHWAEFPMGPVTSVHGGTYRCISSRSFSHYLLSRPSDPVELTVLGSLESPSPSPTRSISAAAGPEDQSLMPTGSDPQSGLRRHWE
- Assay notes: SPR (Biacore), antibody captured via anti-Fc on CM5 chip, soluble ILT3-ECD injected
Quantity measured: koff
Note: state the figure and append the unit.

Record excerpt, results attached:
{"columns": ["Binder", "Measured result"],
 "data": [
  ["Hz48A6 C0/C2 (antibody, V domains shown) VH: EVQLVESGGGLVQPGGSLRLSCAASGFTFSSYGMSWVRQAPGKGLEWVGTISSGGTYTFYPDSVKGRFTISRDNSKNTLYLQMNSLRAEDTAVYYCARRGWLLHYYAMDYWGQGTLVTVSS VL: DIQLTQSPSFLSASVGDRVTITCRPSESVDSFGNSFMHWFQQKPGKAPKLLIYLSSKLESGVPSRFSGSGSGTEFTLTISSLQPEDFATYYCQQHNEDPFTFGQGTKVEIK", "0.058 s⁻¹"],
  ["Hz48A6 C1/C2 (antibody, V domains shown) VH: EVQLVESGGGLVQPGGSLRLSCAASGFTFSSYGMSWVRQAPGKGLEWVATISSGGTYTFYPDSVKGRFTISRDNSKNTLYLQMNSLRAEDTAVYYCARRGWLLHYYAMDYWGQGTLVTVSS VL: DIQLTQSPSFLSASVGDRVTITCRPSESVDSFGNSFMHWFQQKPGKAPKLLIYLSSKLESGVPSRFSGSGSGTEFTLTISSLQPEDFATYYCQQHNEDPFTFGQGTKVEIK", "0.088 s⁻¹"]
]}

Proceed to the following item.
Look up and report measured koff for this entry: Hz45G10 B1/A4 (antibody, V domains shown) VH: EVQLVESGGGLVKPGGSLRLSCAASGFTFSDYGMHWVRQAPGKGLEWVSYIFSGSSTIYYADTVKGRFTISRDNAKNSLYLQMNSLRAEDTAVYYCARADGRGAMDYWGQGTLVTVSS VL: DIQMTQSPSSLSASVGDRVTITCRASQDISKFLNWYQQKPGKAPKLLIYYTSRLHSGVPSRFSGSGSGTDFTFTISSLQPEDIATYFCQQGNTLPWTFGGGTKLEIK
0.09 s⁻¹
